biological target: DAT (Homo sapiens, UniProt Q01959); experiment: Radioligand binding, [3H]WIN35,428 displacement
Sequence (Q01959 whole entry): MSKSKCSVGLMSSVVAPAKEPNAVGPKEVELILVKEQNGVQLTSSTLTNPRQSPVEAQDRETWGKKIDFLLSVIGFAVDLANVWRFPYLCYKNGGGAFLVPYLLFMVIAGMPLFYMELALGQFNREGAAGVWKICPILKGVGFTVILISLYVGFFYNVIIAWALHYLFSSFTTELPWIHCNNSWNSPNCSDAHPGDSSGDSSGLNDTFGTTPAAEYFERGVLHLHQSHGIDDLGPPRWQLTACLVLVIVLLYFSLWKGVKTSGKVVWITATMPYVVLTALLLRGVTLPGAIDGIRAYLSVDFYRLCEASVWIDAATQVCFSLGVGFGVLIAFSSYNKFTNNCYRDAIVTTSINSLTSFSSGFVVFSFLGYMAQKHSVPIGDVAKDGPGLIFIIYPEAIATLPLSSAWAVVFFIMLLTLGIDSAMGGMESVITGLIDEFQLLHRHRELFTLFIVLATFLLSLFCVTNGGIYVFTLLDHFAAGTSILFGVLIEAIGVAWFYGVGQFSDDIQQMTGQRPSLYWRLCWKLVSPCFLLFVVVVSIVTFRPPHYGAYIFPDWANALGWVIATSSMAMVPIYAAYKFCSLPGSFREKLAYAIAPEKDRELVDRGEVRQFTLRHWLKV
measurementName: Ki (nM)

# compound, testedTarget, scaleUnit, relationOperator, measurement
rows = [
    ("CNC(C)Cc1ccc2c(c1)OCO2 (stereo not shown) [MDMA, 3,4-Methylenedioxymethamphetmine, reference compound]", "DAT (Homo sapiens, UniProt Q01959)", "nM", ">", 8500),
    ("CC(N)Cc1ccc(O)c(O)c1 (stereo not shown) [HHA, 3,4-Dihydroxyamphetamine]", "DAT (Homo sapiens, UniProt Q01959)", "nM", "=", 2900),
    ("CC(N)Cc1ccc2c(c1)OCO2 (stereo not shown) [MDA, 3,4-methylenedioxyamphetamine, reference compound]", "DAT (Homo sapiens, UniProt Q01959)", "nM", ">", 8500),
    ("CNC(C)C(=O)c1ccc2c(c1)OCO2 (stereo not shown) [Methylone, 3,4-methylenedioxymethcathinone, reference compound]", "DAT (Homo sapiens, UniProt Q01959)", "nM", "=", 2300),
]

###

biological target: NET (Homo sapiens, UniProt P23975); test: Radioligand binding, N-methyl-[3H]nisoxetine displacement; details: read-out: NET Ki; mean±SD, n=3
Sequence (P23975 whole entry): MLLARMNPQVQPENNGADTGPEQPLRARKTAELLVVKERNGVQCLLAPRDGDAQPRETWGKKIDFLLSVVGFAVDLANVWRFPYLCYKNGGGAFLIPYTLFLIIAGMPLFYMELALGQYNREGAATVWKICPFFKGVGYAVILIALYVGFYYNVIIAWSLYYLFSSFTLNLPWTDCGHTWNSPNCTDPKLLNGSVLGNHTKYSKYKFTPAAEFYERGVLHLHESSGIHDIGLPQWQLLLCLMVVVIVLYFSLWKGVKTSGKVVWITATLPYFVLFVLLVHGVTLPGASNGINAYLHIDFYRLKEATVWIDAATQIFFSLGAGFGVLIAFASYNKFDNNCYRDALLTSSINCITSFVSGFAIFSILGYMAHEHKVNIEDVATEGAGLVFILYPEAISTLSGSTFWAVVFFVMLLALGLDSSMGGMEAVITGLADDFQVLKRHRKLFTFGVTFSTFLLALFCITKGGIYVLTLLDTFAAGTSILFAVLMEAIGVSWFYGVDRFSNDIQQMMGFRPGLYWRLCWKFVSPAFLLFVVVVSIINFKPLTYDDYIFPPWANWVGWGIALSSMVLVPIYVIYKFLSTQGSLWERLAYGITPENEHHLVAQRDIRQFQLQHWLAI

# molecule, Ki
data = [
    ("CNC(C)Cc1ccc(O)c(OC)c1 (stereo not drawn) [HMMA, 4-hydroxy-3-methoxymethamphetamine]", "> 8.8 µM"),
    ("CC(N)C(=O)c1ccc2c(c1)OCO2 (stereo not drawn)", "> 8.8 µM"),
    ("COc1cc(CC(C)N)ccc1O (stereo not drawn) [HMA, 4-hydroxy-3-methyoxyamphetamine]", "> 8.8 µM"),
]

###

target: human 5-HT transporter (SERT) (Homo sapiens, UniProt P31645); assay: [3H]5-HT uptake inhibition in HEK 293 cells overexpressing human SERT; type: cell-based; conditions: read-out: SERT IC50; 5-HT uptake inhibition; mean and 95% confidence interval
Sequence (P31645 whole entry): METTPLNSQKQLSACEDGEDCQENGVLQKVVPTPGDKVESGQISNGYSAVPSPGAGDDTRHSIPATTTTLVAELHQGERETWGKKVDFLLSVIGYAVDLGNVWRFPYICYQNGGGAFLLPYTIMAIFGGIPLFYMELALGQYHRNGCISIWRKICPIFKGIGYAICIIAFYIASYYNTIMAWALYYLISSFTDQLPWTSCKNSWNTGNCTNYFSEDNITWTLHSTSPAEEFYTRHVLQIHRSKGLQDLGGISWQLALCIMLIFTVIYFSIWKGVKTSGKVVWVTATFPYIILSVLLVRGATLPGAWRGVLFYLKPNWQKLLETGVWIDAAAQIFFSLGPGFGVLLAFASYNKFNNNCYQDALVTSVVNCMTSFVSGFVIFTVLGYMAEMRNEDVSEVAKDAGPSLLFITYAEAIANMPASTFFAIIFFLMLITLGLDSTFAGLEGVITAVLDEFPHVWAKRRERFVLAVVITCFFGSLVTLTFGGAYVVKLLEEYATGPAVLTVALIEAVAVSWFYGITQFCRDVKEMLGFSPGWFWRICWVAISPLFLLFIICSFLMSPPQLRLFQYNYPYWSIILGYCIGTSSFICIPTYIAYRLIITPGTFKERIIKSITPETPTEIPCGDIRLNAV

# molecule, scaleUnit, relationOperator, IC50
records = [
    ("CNC(C)Cc1ccc(O)c(OC)c1 (stereo not shown) [HMMA, 4-hydroxy-3-methoxymethamphetamine]", "µM", "=", 20),
    ("CC(N)C(=O)c1ccc2c(c1)OCO2 (stereo not shown) [MDC, 3,4-methylenedioxycathinone]", "µM", "=", 13),
    ("CNC(C)C(=O)c1ccc(O)c(OC)c1 (stereo not shown) [HMMC, 4-hydroxy-3-methyoxymethcathinone]", "µM", ">", 100),
    ("CCCC(C(=O)c1ccc2c(c1)OCO2)N1CCCC1 (stereo not shown) [MDPV, 3,4-methylenedioxypyrovalerone, reference compound]", "µM", "=", 12),
    ("CNC(C)Cc1ccc(O)c(O)c1 (stereo not shown) [HHMA, 3,4-dihydroxymethamphetamine]", "µM", "=", 65),
    ("CNC(C)C(=O)c1ccc(O)c(O)c1 (stereo not shown) [HHMC, 3,4-Dihydroxymethcathinone]", "µM", ">", 100),
    ("COc1cc(CC(C)N)ccc1O (stereo not shown) [HMA, 4-hydroxy-3-methyoxyamphetamine]", "µM", "=", 35),
]

###

biological target: rat TAAR1 (Rattus norvegicus); assay: Radioligand binding, [3H]RO5166017 displacement; conditions: read-out: TAAR1rat Ki; mean±SD, n=3
Sequence (Q923Y9 whole entry): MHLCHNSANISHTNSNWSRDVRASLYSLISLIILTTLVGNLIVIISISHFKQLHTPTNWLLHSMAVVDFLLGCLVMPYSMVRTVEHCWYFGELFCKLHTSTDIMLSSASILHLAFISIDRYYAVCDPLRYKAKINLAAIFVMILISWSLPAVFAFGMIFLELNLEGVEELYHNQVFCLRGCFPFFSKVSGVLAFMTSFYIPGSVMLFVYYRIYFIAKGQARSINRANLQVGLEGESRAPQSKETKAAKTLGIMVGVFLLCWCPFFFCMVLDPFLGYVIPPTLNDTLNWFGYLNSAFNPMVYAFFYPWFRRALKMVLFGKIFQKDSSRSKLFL

# molecule, Ki
records = [
    ("CCCC(C(=O)c1ccc2c(c1)OCO2)N1CCCC1 (stereo not shown) [MDPV, 3,4-methylenedioxypyrovalerone, reference compound]", "> 5 µM"),
    ("CNC(C)C(=O)c1ccc(O)c(OC)c1 (stereo not shown) [HMMC, 4-hydroxy-3-methyoxymethcathinone]", "> 5.2 µM"),
    ("CCCC(C(=O)c1ccc(O)c(O)c1)N1CCCC1 (stereo not shown) [HHPV, 3,4-dihydroxypyrovalerone]", "> 5.2 µM"),
    ("CCCC(C(=O)c1ccc(O)c(OC)c1)N1CCCC1 (stereo not shown) [HMPV, 4-hydroxy-3-methyoxypyrovalerone]", "> 5.2 µM"),
]
